- target_or_system: T1, canine CTLA-4 (cCTLA-4) recombinant protein (canine, UniProt Q9XSI1 38-161, limits assumed)
- T1 construct: also called canine Cytotoxic T-Lymphocyte-Associated protein 4; CD152
- T1 chain: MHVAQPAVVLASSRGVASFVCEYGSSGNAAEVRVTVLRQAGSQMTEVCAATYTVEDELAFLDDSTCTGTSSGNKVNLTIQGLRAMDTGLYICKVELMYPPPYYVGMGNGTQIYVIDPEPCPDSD
- procedure_details: ELISA on coated cCTLA-4, OD450/540 ('xCTLA4 ELISA', Example 7)
quantity: EC50 (read off the curve)

Below, 4 binders whose answers are already recorded.
binder | EC50 (read off the curve)
Mouse-canine chimeric antibody 12B3 (antibody, V domains shown, expressed in HEK 293 cells, purified on protein A; also called chimera of 12B3) VH: QIQLVQSGPELKKPGETVKISCKASGYTFTNYGMNWVKQAPGKGLKWMGWINTYTGEPTYADDFKGRFAFSLETSASTAYLQINNLKNEDMATYFCARRSIYYPYWGQGTTLTVSS VL: DVLMTQTPLSLPVSLGDQASISCRSSQSIVYSNGNTYLEWYLQKPGQSPKLLIYKVSNRFSGVPDRFSGSGSGTDFTLKISRVEAEDLGVYYCFQGSHVPWTFGGGTKLEIKR | ~1 ng/mL
Caninized c39A11L2H3 (antibody, V domains shown, written here as L2H3; also called caninized 39A11) VH: EVKLVESGGDLVKPGGSLRLSCATSGFTFSDYYMSWVRQAPGKALEWMGFIRNKANGYTTEYSASLKGRFTISRDNAKNMLYLQMNSLRAEDTAVYYCVRFGLMYYFDYWGQGTTLTVSS VL: ENVLTQSPASLSLSQEEKVTITCRASSSVSSSYLHWYQQKPGQAPKLWIFSTSNLASGVPSRFSGSGSGTDYSFTISSLEPEDVAVYYCQQYSGLPLTFGGGTKLELKR | ~7 ng/mL
Caninized c39A11L3H3 (antibody, V domains shown, also called caninized 39A11 VL3/VH3) VH: EVKLVESGGDLVKPGGSLRLSCATSGFTFSDYYMSWVRQAPGKALEWMGFIRNKANGYTTEYSASLKGRFTISRDNAKNMLYLQMNSLRAEDTAVYYCVRFGLMYYFDYWGQGTTLTVSS VL: ENVLTQSPASLSLSPGEKVTITCRASSSVSSSYLHWYQQKPGQSPKLWIFSTSNLASGVPSRFSGSGSGTSYSFTISSLEPEDVAVYYCQQYSGLPLTFGGGTKLELKR | ~4 ng/mL
Mouse-canine chimeric antibody 39A11 (antibody, V domains shown, Mouse variable regions fused to canine constant heavy chain and canine kappa; HEK 293, protein A; also called chimera of 39A11) VH: EVKLVESGGGLVQPGGSLSLSCATSGFTFSDYYMSWVRQSPGKALEWMGFIRNKANGYTTEYSASLKGRFTISRDNSQSILYLQMNVLRAEDSATYYCVRFGLMYYFDYWGQGTTLTVSS VL: ENVLIQSPAIMSASPGEKVTMTCRASSSVSSSYLHWYQQKSGASPKLWIFSTSNLASGVPARFSGSGSGTSYSLTINSVEAEDAATYYCQQYSGLPLTFGGGTKLEIKR | ~4 ng/mL

Form: binder = Caninized c12B3L2H3 (antibody, V domains shown, also called caninized 12B3) VH: EIQLVQSGGDLVKPGGSVRLSCKASGYTFTNYGMNWVKQAPGKGLQWMGWINTYTGEPTYADDFKGRFTFSLDNAKNTAYLQINSLRAEDTAVYFCARRSIYYPYWGQGTTLTVSS VL: DIVMTQTPLSLSVSPGEPASISCRSSQSIVYSNGNTYLEWYQQKPGQSPKLLIYKVSNRFSGVPDRFSGSGSGTDFTLRISRVEADDAGVYYCFQGSHVPWTFGGGTKLEIKR ; EC50 (read off the curve) = ~2 ng/mL

Form: binder = Caninized c12B3L3H3 (antibody, V domains shown, also called caninized 12B3 VL3/VH3) VH: EIQLVQSGGDLVKPGGSVRLSCKASGYTFTNYGMNWVKQAPGKGLQWMGWINTYTGEPTYADDFKGRFTFSLDNAKNTAYLQINSLRAEDTAVYFCARRSIYYPYWGQGTTLTVSS VL: DVLMTQTPLSLSVSPGEPASISCRSSQSIVYSNGNTYLEWYLQKPGQSPKLLIYKVSNRFSGVPDRFSGSGSGTDFTLRISRVEADDAGVYYCFQGSHVPWTFGGGTKLELKR ; EC50 (read off the curve) = ~2 ng/mL
